- study target: T1, human MSLN-FL-his protein (human, UniProt Q13421 296-580)
- T1 construct: made in HEK293E cells, purified on nickel column; also called hMSLN-FL-his; human MSLN full-length protein; not shown: His tag
- T1 sequence (Q13421 other isoform, or with tags, fused parts or gaps): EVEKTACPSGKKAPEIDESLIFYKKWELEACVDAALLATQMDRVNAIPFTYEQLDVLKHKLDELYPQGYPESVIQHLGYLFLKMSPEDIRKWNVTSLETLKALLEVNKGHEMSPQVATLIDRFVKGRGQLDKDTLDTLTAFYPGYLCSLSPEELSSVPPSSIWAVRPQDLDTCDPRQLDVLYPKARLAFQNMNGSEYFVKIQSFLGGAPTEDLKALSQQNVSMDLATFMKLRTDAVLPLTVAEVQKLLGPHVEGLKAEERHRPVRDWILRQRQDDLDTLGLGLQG
- assay protocol: competitive ELISA; row F2.13.3; further: test concentration or dose not given here
# competition rate annotations
measure name: competition rate

1. S009-F1.35.24 (antibody, human IgG1, kappa, V domains shown, human-murine chimeric antibody, human IgG1/kappa constant regions) VH: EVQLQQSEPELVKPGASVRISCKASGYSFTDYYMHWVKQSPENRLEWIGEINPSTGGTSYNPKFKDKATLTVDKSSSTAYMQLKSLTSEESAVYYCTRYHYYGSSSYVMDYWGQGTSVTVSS VL: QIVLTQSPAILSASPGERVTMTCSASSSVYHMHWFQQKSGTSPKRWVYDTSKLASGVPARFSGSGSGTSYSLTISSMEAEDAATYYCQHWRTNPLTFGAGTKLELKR : 29%
2. S009-F2.16.10 (antibody, human IgG1, kappa, V domains shown, human-murine chimeric antibody, human IgG1/kappa constant regions) VH: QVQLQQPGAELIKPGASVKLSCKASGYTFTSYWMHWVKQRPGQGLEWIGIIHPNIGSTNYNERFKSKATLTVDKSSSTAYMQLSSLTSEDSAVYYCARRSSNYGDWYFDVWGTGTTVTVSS VL: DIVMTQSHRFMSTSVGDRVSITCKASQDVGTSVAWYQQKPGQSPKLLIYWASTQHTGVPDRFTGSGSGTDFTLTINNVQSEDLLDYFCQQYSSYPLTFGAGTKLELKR : -740%
3. S009-F2.23.12 (antibody, human IgG1, kappa, V domains shown, human-murine chimeric antibody, human IgG1/kappa constant regions) VH: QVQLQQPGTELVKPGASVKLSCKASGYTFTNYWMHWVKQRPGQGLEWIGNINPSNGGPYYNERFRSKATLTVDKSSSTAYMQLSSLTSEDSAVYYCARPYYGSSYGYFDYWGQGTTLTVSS VL: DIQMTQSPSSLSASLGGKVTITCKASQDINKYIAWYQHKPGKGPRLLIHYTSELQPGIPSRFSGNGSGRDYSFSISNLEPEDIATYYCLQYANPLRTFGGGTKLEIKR : -1080%

Hey, just so you know, these numbers are from patent US20250250357A1.
